# Particulars: in propylene glycol, 298.15 K
Endpoint: solubility (mole fraction)
The response must contain the number and no unit.

Requested field: solubility (mole fraction). Item: Nc1ncnc2nc[nH]c12
0.0112

----------
# Particulars: in DMSO, 308.15 K
Endpoint: solubility (mole fraction)
Please reply with the value in numeric form only.

Using the record for Nc1ncnc2nc[nH]c12 , report its solubility (mole fraction).
0.0131

----------
# Particulars: in water, 313.15 K
Endpoint: solubility (mole fraction)
Please respond with just the number, no unit label.

Looking for the measured solubility (mole fraction) of Nc1ncnc2nc[nH]c12 , can you help?
0.000264

----------
# Particulars: in DMF, 278.15 K
Endpoint: solubility (mole fraction)

Item under review: Nc1ncnc2nc[nH]c12 . Reported solubility (mole fraction)?
0.00192
